Test: Caco-2 permeability assay
Type: in vitro ADME
Conditions: human, Caco-2, individual replicates
Procedure: A Caco-2 permeability assay was performed on Compound D136.
Measured metric: Papp B→A (×10⁻⁶ cm/s)
Answers are plain numbers, in ×10⁻⁶ cm/s.

Need Papp B→A, item COCCN[C@H]1CS(=O)(=O)C[C@@H]1S(=O)(=O)c1ccc(Cl)cc1
47.9

----------
Molecular target: NR2F6 (Homo sapiens, UniProt P10588)
Construct: expressed in transfected cells; also transient transfection
Sequence (P10588 1-404): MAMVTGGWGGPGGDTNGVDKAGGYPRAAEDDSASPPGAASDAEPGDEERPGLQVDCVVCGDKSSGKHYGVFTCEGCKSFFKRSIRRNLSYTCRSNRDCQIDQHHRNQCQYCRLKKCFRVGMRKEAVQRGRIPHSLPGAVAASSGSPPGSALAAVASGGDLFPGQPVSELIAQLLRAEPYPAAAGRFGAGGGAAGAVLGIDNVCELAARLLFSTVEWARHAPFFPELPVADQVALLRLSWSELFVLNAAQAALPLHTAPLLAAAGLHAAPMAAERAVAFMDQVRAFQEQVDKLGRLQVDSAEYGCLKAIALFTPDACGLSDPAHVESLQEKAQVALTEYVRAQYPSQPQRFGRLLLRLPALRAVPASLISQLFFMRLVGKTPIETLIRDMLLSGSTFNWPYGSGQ
Test: NR2F6 agonist screening, Firefly signal cmpd/DMSO
Assay type: cell-based
Conditions: Table 13; ratio Firefly/Renilla, NR2F6 stable clone F4
Measured metric: Firefly/Renilla (NR2F6 stable, clone F4)

Worked set:
>>> obs_value("COc1ccc2oc(=O)c(S(=O)(=O)c3ccc(C(C)(C)C)cc3)cc2c1")
3.6
>>> obs_value("Cc1cc(S(=O)(=O)c2cc3cc(F)cc(F)c3oc2=O)ccc1F")
1.1
>>> obs_value("Cc1ccc(NC(=O)c2ccc3oc(=O)c(S(=O)(=O)c4ccccc4)cc3c2)cc1")
1.3

Next compound, please.
Need Firefly/Renilla (NR2F6 stable, clone F4), item COC(=O)c1ccc2oc(=O)c(S(=O)(=O)c3ccc(F)cc3)cc2c1
1.5

----------
Provide the reported Firefly ERalpha transient, cmpd/DMSO (mean) of each item.
Target: ERα (Homo sapiens)
Construct: expressed in transfected cells
Sequence (P03372 whole entry, species assumed): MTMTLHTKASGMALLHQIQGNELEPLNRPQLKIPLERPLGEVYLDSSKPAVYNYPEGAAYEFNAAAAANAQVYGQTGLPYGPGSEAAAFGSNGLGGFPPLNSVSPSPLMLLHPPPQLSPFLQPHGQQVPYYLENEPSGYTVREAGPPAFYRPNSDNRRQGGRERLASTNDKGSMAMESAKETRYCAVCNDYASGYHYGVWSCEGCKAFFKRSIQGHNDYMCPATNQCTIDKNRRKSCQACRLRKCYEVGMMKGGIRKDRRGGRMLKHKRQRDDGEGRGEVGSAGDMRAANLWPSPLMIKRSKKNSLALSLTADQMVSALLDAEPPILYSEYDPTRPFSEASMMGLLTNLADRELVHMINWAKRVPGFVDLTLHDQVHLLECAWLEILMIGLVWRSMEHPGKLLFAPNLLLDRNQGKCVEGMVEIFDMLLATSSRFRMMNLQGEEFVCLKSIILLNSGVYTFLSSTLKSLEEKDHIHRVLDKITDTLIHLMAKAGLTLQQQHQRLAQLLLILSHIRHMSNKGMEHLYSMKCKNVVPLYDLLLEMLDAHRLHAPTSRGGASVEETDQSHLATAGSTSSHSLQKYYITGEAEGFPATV
Assay: Counterscreening, Firefly signal with ERα transient transfection (Firefly_ERa)
Type: cell-based
Settings: 2 uM
Numbers only.

>>> obs_value("Cc1cc(C)c2ncc(C(=O)N3CCCC3)c(NCCCN(C)C)c2c1")
1.8
>>> obs_value("N#Cc1c(C(F)(F)F)nc2ccc(Cl)cc2c1N1CCOCC1")
1.4
>>> obs_value("CCOC(=O)Cc1sc(Nc2nc(C)cc(C)n2)nc1-c1ccccc1")
1.0

Would you mind listing Firefly ERalpha transient, cmpd/DMSO (mean) for each of the following compounds?
1. COc1ccc2nc(C(F)(F)F)c(C#N)c(NCCc3ccc(Cl)cc3)c2c1
2. COc1ccc2nc(C(F)(F)F)c(C#N)c(NCCOc3ccc(Cl)cc3)c2c1
3. CNC(=O)c1cnc2c(C)cc(C)cc2c1NCCCN(C)C
4. O=c1cccc2n1CC1CC2CN(c2nc(NCCC3=CCCCC3)nc(N3CCCC3)n2)C1 (stereo not drawn)

1.2
1.0
1.4
1.2

Would you mind listing Firefly ERalpha transient, cmpd/DMSO (mean) for each of the following compounds?
1. N#CC1=C(N)n2nc(-c3ccccc3)cc2NC1(c1ccc(N2CCOCC2)cc1)C(F)(F)F (stereo not drawn)
2. CC(C)Nc1nc(N2CCOCC2)nc(N2CCn3c(cccc3=O)C2)n1

[1.0, 1.1]

----------
Provide the reported Firefly/Renilla (NR2F6 stable, clone F4) of each item.
Target: NR2F6 (Homo sapiens)
Construct: expressed in transfected cells; also transient transfection
Test: NR2F6 agonist screening, Firefly signal cmpd/DMSO
Assay type: cell-based
Details: Table 13; ratio Firefly/Renilla, NR2F6 stable clone F4
Numbers only.

Worked set:
>>> obs_value("O=C(NCc1ccc(F)cc1)c1ccc2oc(=O)c(S(=O)(=O)c3ccc(F)cc3)cc2c1")
1.1
>>> obs_value("O=c1oc2ccccc2cc1S(=O)(=O)c1ccc(F)c(Cl)c1")
1.4
>>> obs_value("Cc1ccc2oc(=O)c(S(=O)(=O)c3cccc(Cl)c3)cc2c1")
1.6
>>> obs_value("COc1cccc(NC(=O)c2ccc3oc(=O)c(S(=O)(=O)c4ccc(C)cc4)cc3c2)c1")
1.0
>>> obs_value("O=c1oc2ccccc2cc1S(=O)(=O)c1ccc(Cl)cc1")
2.6

Would you mind listing Firefly/Renilla (NR2F6 stable, clone F4) for each of the following compounds?
1. O=c1oc2ccc(Cl)cc2cc1S(=O)(=O)c1ccccc1F
2. COc1cccc(NC(=O)c2ccc3oc(=O)c(S(=O)(=O)c4ccc(F)cc4)cc3c2)c1
3. COc1ccc2oc(=O)c(S(=O)(=O)c3cccc(Cl)c3)cc2c1

1: 1.1; 2: 1.1; 3: 2.0

----------
Biological target: NR2F6 (Homo sapiens, UniProt P10588)
Construct: expressed in transfected cells; also transient transfection
Test: NR2F6 agonist screening, Firefly signal cmpd/DMSO
Type: cell-based
Conditions: Table 15; 10 uM
Rule: Y for Firefly F4, cmpd/DMSO (mean) not less than 1, N for anything less.

>>> class_name("CCOC(=O)c1cnc2c(C)cc(C)cc2c1NCCCN1CCCCC1 [Compound Z11]")
"Y"
>>> class_name("CCOC(=O)c1cnc2c(C)cc(C)cc2c1NCCCN1CCCCC1 [Compound Z17]")
"Y"
>>> class_name("CCOC(=O)c1cnc2c(C)cc(C)cc2c1NCCCN [Compound Z58]")
"Y"
>>> class_name("COc1cccc(-c2noc(Cn3ncc(Cl)cc3=O)n2)c1 [Compound Z4]")
"Y"
>>> class_name("CS(=O)(=O)Nc1ccc([N+](=O)[O-])c2nonc12 [Compound Z13]")
"N"

Let us examine a further case.
Textbook exercise: given the entry CCOC(=O)c1cnc2c(C)cc(C)cc2c1N1CCC(N(C)C)CC1 [Compound Z68] , state whether its Firefly F4, cmpd/DMSO (mean) is greater than or equal to 1.
Y

----------
Target: NR2F6 (Homo sapiens)
Construct: expressed in transfected cells; also transient transfection
Sequence (P10588 1-404): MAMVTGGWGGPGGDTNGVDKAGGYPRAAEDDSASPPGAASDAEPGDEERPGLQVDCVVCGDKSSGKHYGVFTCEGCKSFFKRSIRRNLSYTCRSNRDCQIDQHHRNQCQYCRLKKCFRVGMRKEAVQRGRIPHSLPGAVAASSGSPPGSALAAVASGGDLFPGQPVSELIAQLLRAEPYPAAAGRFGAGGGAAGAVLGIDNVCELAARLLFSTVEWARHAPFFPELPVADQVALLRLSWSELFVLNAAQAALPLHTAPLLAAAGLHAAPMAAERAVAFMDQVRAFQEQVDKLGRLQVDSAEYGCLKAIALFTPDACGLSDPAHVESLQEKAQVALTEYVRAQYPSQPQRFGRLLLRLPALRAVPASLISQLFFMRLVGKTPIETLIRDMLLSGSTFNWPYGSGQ
Test: NR2F6 agonist screening, Firefly signal cmpd/DMSO
Type: cell-based
Settings: Table 9; repeat 1
Measured metric: Firefly, cmpd/DMSO repeat 1
Give bare numbers.

Worked set:
>>> obs_value("CCOc1cccc2cc(S(=O)(=O)c3cc(F)cc(F)c3)c(=O)oc12 [Compound C230]")
12.5
>>> obs_value("CCOc1cccc2cc(S(=O)(=O)c3ccc(Cl)c(Cl)c3)c(=O)oc12 [Compound C246]")
7.4
>>> obs_value("COc1ccc(S(=O)(=O)c2cc3cccc(OC)c3oc2=O)cc1 [Compound C232]")
1.0

Would you mind listing Firefly, cmpd/DMSO repeat 1 for each of the following compounds?
1. CCOc1cccc2cc(S(=O)(=O)c3cccc(Cl)c3)c(=O)oc12 [Compound C256]
2. CCOc1cccc2cc(S(=O)(=O)c3ccc(C)cc3)c(=O)oc12 [Compound C236]
3. CCOc1ccc(S(=O)(=O)c2cc3cccc(OCC)c3oc2=O)cc1 [Compound C252]
4. CCOc1cccc2cc(S(=O)(=O)c3ccccc3F)c(=O)oc12 [Compound C254]
5. CCOc1cccc2cc(S(=O)(=O)c3ccc(F)c(Cl)c3)c(=O)oc12 [Compound C251]
6. COc1cccc2cc(S(=O)(=O)c3ccccc3F)c(=O)oc12 [Compound C253]
7. COc1ccc(S(=O)(=O)c2cc3cccc(OC)c3oc2=O)cc1OC [Compound C247]

1. 11.5
2. 4.4
3. 3.2
4. 7.6
5. 2.1
6. 2.5
7. 2.2

Would you mind listing Firefly, cmpd/DMSO repeat 1 for each of the following compounds?
1. COc1cccc2cc(S(=O)(=O)c3cc(F)cc(F)c3)c(=O)oc12 [Compound C229]
2. COc1cccc2cc(S(=O)(=O)c3ccc(Br)cc3)c(=O)oc12 [Compound C233]
3. COc1ccc(OC)c(S(=O)(=O)c2cc3cccc(OC)c3oc2=O)c1 [Compound C249]
4. CCOc1cccc2cc(S(=O)(=O)c3ccc(F)c(C)c3)c(=O)oc12 [Compound C258]
5. CCOc1cccc2cc(S(=O)(=O)c3ccc(C)c(C)c3)c(=O)oc12 [Compound C243]
6. COc1cccc2cc(S(=O)(=O)c3ccc(C)c(C)c3)c(=O)oc12 [Compound C242]
7. COc1cccc2cc(S(=O)(=O)c3cccc(Cl)c3)c(=O)oc12 [Compound C255]
8. COc1cccc2cc(S(=O)(=O)c3ccc(C)cc3)c(=O)oc12 [Compound C231]

[2.9, 2.8, 1.4, 1.5, 2.0, 1.1, 1.5, 0.7]

Where do the numbers come from? From patent US11377442B2.
